- assay_system: pSLP76 (Phospho-SLP-76 (Ser376)), Jurkat E6-1 cells (Homo sapiens, UniProt Q92918)
- Construct: read-out phospho-SLP-76 (Ser376) HTRF
- Sequence (Q92918 whole entry): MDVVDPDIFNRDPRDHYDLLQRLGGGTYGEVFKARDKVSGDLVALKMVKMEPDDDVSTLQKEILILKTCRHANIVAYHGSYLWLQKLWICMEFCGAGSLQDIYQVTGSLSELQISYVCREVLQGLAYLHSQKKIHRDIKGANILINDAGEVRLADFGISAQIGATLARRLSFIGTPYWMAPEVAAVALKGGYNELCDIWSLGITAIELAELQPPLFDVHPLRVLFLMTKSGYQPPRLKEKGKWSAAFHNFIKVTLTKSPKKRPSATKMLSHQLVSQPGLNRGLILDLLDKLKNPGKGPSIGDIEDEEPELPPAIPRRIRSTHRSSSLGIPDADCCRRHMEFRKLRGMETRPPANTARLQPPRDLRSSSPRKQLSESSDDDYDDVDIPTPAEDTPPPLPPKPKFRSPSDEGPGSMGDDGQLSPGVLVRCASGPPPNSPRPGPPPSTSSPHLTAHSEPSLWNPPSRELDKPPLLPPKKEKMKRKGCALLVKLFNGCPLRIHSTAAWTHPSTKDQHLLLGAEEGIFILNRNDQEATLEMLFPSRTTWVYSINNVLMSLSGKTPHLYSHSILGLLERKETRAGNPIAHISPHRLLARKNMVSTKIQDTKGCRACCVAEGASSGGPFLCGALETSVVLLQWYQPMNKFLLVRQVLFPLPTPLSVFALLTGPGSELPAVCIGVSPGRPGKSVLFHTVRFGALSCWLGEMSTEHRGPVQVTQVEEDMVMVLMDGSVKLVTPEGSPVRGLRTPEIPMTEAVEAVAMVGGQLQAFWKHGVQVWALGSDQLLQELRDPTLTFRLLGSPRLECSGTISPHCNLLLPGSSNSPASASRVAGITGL
- experimental_protocol: Phospho-SLP-76 (Ser376) HTRF Assay in Jurkat E6-1 cells
- assay_conditions: compound 4 hours, then anti-CD3 20 minutes
pIC50: −log10 of the molar value.
experimental_endpoint: pIC50

compound	assay_value
CC1(C)c2cc(N3CCOCC3)ccc2Nc2c1cc(-c1cnc3c(Cl)cccn13)c1cc[nH]c(=O)c21	6.92

a = Cc1ccc2c(-c3cc4c(c5c(=O)[nH]ccc35)Nc3ccc(N5CCOC(C(C)(C)O)C5)cc3C4(C)C)cnn2c1 (stereo not shown)
b = COc1cccn2c(-c3cc4c(c5c3CNC5=O)Nc3cnc(N5CCOCC5)cc3C4(C)C)cnc12
c = COc1cccc2c(-c3nc4c(c5c3CCNC5=O)Nc3ccc(N5CCOCC5)cc3C4(C)C)cnn12
List these items ordered by pIC50, big to small. Put the labels in the requested order and write them down.
c, b, a

----------
- Test system: human Pan T cells (IL-2 release)
- experimental_protocol: Human Pan T Cell IL-2 ELISA
- Assay type: cell-based
- assay_conditions: Homo sapiens, T-cell, 48 h, Anti-CD3/Anti-CD28 stimulation, IL-2 ELISA of supernatant
experimental_endpoint: EC50 (nM)

1 = CC1(C)c2cc(N3CCOCC3)ccc2Nc2c1cc(-c1cnc3n1CCC[C@@H]3OC1COC1)c1c2C(=O)NC1 (single isomer, unassigned)
2 = CO[C@H]1CCCn2c(-c3cc4c(c5c3CNC5=O)Nc3ccc(N5CC6CCC5CO6)cc3C4(C)C)cnc21 (stereo in doubt)
I'm curious whether 1 or 2 has the smaller EC50 number. Which is it? I would appreciate it if you answered with the label of your choice.
2

I = CO[C@@H]1CCn2c(-c3cc4c(c5c3CNC5=O)Nc3ccc(N5CCO[C@@H](C(C)(C)O)C5)cc3C4(C)C)cnc2C1 (single isomer, unassigned)
II = CO[C@H]1CCn2c(-c3cc4c(c5c3CNC5=O)Nc3ccc(N5CCO[C@@H](C(C)(C)O)C5)cc3C4(C)C)cnc2C1 (single isomer, unassigned)
I'm curious whether I or II has the smaller EC50 number. Which is it? I would appreciate it if you answered with the label of your choice.
II

----------
- assay_system: pSLP76 (Phospho-SLP-76 (Ser376)), Jurkat E6-1 cells (Homo sapiens, UniProt Q92918)
- Construct: read-out phospho-SLP-76 (Ser376) HTRF
- experimental_protocol: Phospho-SLP-76 (Ser376) HTRF Assay in Jurkat E6-1 cells
- assay_conditions: compound 4 hours, then anti-CD3 20 minutes
experimental_endpoint: IC50 (nM)

molecule	assay_system	measurement_unit	IC50
COc1cccc2c(-c3cc4c(c5c3CNC5=O)Nc3ncc(N5CCOCC5)cc3C4(C)C)cnn12	pSLP76 (Phospho-SLP-76 (Ser376)), Jurkat E6-1 cells (Homo sapiens, UniProt Q92918)	nM	37

I = CC1(C)c2cc(N3CCOCC3)ccc2Nc2c1cc(-c1cnn3c(C#N)cccc13)c1c2C(=O)NC1
II = CC1(C)c2cc(N3CCOCC3)ccc2Nc2c1cc(-c1cnn3cccnc13)c1cc[nH]c(=O)c21
I'm curious whether I or II has the smaller IC50 number. Which is it? I would appreciate it if you answered with the label of your choice.
II
